- protocol.text: absorption spectra measured in solution (λmax, ε, shift Δλmax after thermal cyclization)
- Assay type: physicochemical
- stated.conditions: table
observation.type: ε

CCOC(=O)/C(C#N)=C/C=C1\NCCc2ccccc21
53 320

Exam item: Which value of ε has been reported for `CCCCN/C=C\c1c(C(=O)OC(C)C)c(=O)oc2cc(OC)c(OC)cc12` in the records?
Marked response: 24 580

Exam item: Which value of ε has been reported for CCOC(=O)/C(C#N)=C/C(C#N)=C1\NC(CC)Cc2cc(N(C)C)ccc21 (centres unmarked) in the records?
Marked response: 63 160

Exam item: Which value of ε has been reported for `N#Cc1c(/C=C\Nc2ccccc2)c2ccc(-n3nccn3)cc2oc1=O` in the records?
Marked response: 38 540

Exam item: Which value of ε has been reported for `COc1ccc(Nc2c(C=C(C#N)C#N)c(=O)oc3ccccc23)cc1OC` in the records?
Marked response: 26 670
